Reference for the values: ChEMBL document CHEMBL2151033

tested on: Human immunodeficiency virus 2; assay: Antiviral activity against HIV2 ROD infected in human MT4 cells assessed as inhibition of virus-induced cytopathic effect after 5 days by MTT assay; type: functional, organism-based; settings: Human immunodeficiency virus 2, ISOLATE ROD, MT4, 120 h
observed_property: EC50

>>> result_value("Cc1cc(C)c(Oc2cc(Nc3ccc(C#N)cc3)ncn2)c(C)c1")
"> 42.2 µM"

Problem: GET /values?readout=EC50&item= Cc1cc(C)c(Nc2cc(Oc3c(C)cc(C#N)cc3C)ncn2)c(C)c1
Solution: > 37.5 µM

====

experiment: Cytotoxicity against human MT4 cells assessed as decrease in cell viability after 5 days by MTT assay; format: cell-based
observed_property: CC50 at 120 h (µM)
Write the number in µM without appending the unit.

Example entries begin here.
>>> result_value("Cc1cc(C)c(Oc2cc(Nc3ccc(C#N)cc3)ncn2)c(C)c1")
42.2
>>> result_value("Cc1cc(C)c(Oc2cccc(Nc3ccc(C#N)cc3)c2)c(C)c1")
52.6
>>> result_value("Cc1cc(C)c(Nc2cc(Oc3c(C)cc(C)cc3C)ncn2)c(C)c1")
38.2
>>> result_value("Cc1cc(C)c(Nc2cc(Oc3c(C)cc(C#N)cc3C)ncn2)c(C)c1")
37.5

Problem: GET /values?readout=CC50 at 120 h&item= Cc1cc(C)c(Nc2cccc(Oc3c(C)cc(C)cc3C)c2)c(C)c1
Solution: 43.6

====

assay: Selectivity index, ratio of CC50 for human MT4 cells to EC50 for wild type HIV1 3B infected in human MT4 cells; format: toxicity, cell-based; details: read-out: Ratio CC50/EC50
observed_property: selectivity ratio

Example entries begin here.
>>> result_value("Cc1ccnc2c1NC(=O)c1cccnc1N2C1CC1")
"> 155"
>>> result_value("Cc1cc(C#N)cc(C)c1Oc1cc(Nc2ccc(C#N)cc2)ncn1")
"≥ 740"
>>> result_value("Cc1cc(C)c(Nc2cc(Oc3c(C)cc(C)cc3C)ncn2)c(C)c1")
"< 1"
>>> result_value("Cc1cc(C)c(Nc2cccc(Nc3ccc(C#N)cc3)c2)c(C)c1")
"≥ 552"
>>> result_value("Cc1cc(C)c(Oc2cccc(Nc3ccc(C#N)cc3)c2)c(C)c1")
65

Problem: GET /values?readout=selectivity ratio&item= Cc1cc(C#N)cc(C)c1Oc1nc(Nc2ccc(C#N)cc2)nc(N)c1Br
Solution: 12900

Problem: CC(C)Nc1cccnc1N1CCN(C(=O)c2cc3cc(NS(C)(=O)=O)ccc3[nH]2)CC1 , same question.
Solution: > 8

====

test system: Human immunodeficiency virus 2; test: Antiviral activity against HIV2 ROD infected in human MT4 cells assessed as inhibition of virus-induced cytopathic effect after 5 days by MTT assay; assay type: functional, organism-based; conditions: Human immunodeficiency virus 2, ISOLATE ROD, MT4, 120 h
observed_property: EC50

Example entries begin here.
>>> result_value("Cc1cc(C)c(Nc2cccc(Oc3c(C)cc(C)cc3C)c2)c(C)c1")
"> 43.6 µM"
>>> result_value("Cc1cc(C)c(Nc2cccc(Nc3ccc(C#N)cc3)c2)c(C)c1")
"> 220 µM"
>>> result_value("Cc1cc(C)c(Oc2cccc(Nc3ccc(C#N)cc3)c2)c(C)c1")
"> 52.6 µM"
>>> result_value("Cc1cc(C#N)cc(C)c1Oc1cc(Nc2ccc(C#N)cc2)ncn1")
"> 292 µM"
>>> result_value("Cc1cc(C#N)cc(C)c1Oc1nc(Nc2ccc(C#N)cc2)nc(N)c1Br")
"> 27.8 µM"

// next item, EC50 requested
Problem: GET /values?readout=EC50&item= Cc1cc(C)c(Nc2cc(Oc3c(C)cc(C)cc3C)ncn2)c(C)c1
Solution: > 38.5 µM
